Recorded % Hemolysis 10 μg/ml values for a group of compounds are listed next.
System: human red blood cells
method.summary: Hemolytic assay
Format: cell-based
reported.conditions: red cells of human, 10
Peptide text beside a SMILES is read from it. * marks the point of attachment. Fmoc = O=C(OCC1c2ccccc2-c2ccccc21)*; Acm = CC(=O)NC*
readout: % Hemolysis 10 μg/ml (%)

1. CSCC[C@H](NC(=O)[C@H](CCCCN)NC(=O)[C@H](CCCCN)NC(=O)[C@H](CC(C)C)NC(=O)CNC(=O)[C@H](C)N)C(=O)N[C@@H](CCCNC(=N)N)C(=O)N[C@@H](Cc1c[nH]c2ccccc12)C(=O)N[C@@H](CCC(N)=O)C(=O)N[C@@H](Cc1c[nH]c2ccccc12)C(=O)N[C@@H](CCCNC(=N)N)C(=O)N[C@@H](CCCNC(=N)N)C(=O)N[C@@H](CSCNC(C)=O)C(=O)N[C@@H](CCCCN)C(=O)N[C@@H](Cc1ccccc1)C(=O)O | 2.01
2. CSCC[C@H](NC(=O)[C@H](CCC(=O)O)NC(=O)[C@H](Cc1c[nH]c2ccccc12)NC(=O)[C@H](CCC(N)=O)NC(=O)[C@H](Cc1c[nH]c2ccccc12)NC(=O)[C@H](CCCNC(=N)N)NC(=O)[C@H](CC(C)C)NC(=O)[C@H](CSCNC(C)=O)NC(=O)[C@H](CCCCN)NC(=O)[C@@H](N)CCCNC(=N)N)C(=O)N[C@@H](CCCNC(=N)N)C(=O)N[C@@H](CCCCN)C(=O)N[C@H](C(=O)NCC(=O)NCC(=O)O)C(C)C [LFM R1, W8] (H-RKC(Acm)LRWQWEMRKVGG-OH; N-terminus assumed) | 2.8
3. CSCC[C@H](NC(=O)[C@H](CCCNC(=N)N)NC(=O)[C@H](Cc1c[nH]c2ccccc12)NC(=O)[C@H](CCC(N)=O)NC(=O)[C@H](Cc1c[nH]c2ccccc12)NC(=O)[C@H](CCCNC(=N)N)NC(=O)[C@H](CCCNC(=N)N)NC(=O)OCC1c2ccccc2-c2ccccc21)C(=O)N[C@@H](CCCCN)C(=O)N[C@@H](CCCCN)C(=O)N[C@@H](CC(C)C)C(=O)O [LFB 20-29 FMOC] (Fmoc-RRWQWRMKKL-OH) | 10.3
4. CSCC[C@H](NC(=O)[C@H](CCC(=O)O)NC(=O)[C@H](Cc1c[nH]c2ccccc12)NC(=O)[C@H](CCC(N)=O)NC(=O)[C@H](Cc1c[nH]c2ccccc12)NC(=O)[C@H](CCCNC(=N)N)NC(=O)[C@H](CC(C)C)NC(=O)[C@H](CSCNC(C)=O)NC(=O)[C@H](CCCCN)NC(=O)[C@@H](N)CCC(=O)O)C(=O)N[C@@H](CCCNC(=N)N)C(=O)N[C@@H](CCCCN)C(=O)N[C@H](C(=O)NCC(=O)NCC(=O)O)C(C)C [LFM W8] (H-EKC(Acm)LRWQWEMRKVGG-OH) | 2.6
5. CSCC[C@H](NC(=O)[C@H](CCCNC(=N)N)NC(=O)[C@H](C)NC(=O)[C@H](CCC(N)=O)NC(=O)[C@H](Cc1c[nH]c2ccccc12)NC(=O)[C@H](CCCNC(=N)N)NC(=O)[C@H](CCCNC(=N)N)NC(=O)[C@H](CSCNC(C)=O)NC(=O)[C@H](CCCCN)NC(=O)[C@@H](N)Cc1ccccc1)C(=O)N[C@@H](CCCCN)C(=O)N[C@@H](CCCCN)C(=O)N[C@@H](CC(C)C)C(=O)NCC(=O)N[C@@H](C)C(=O)O [LFB A8] (H-FKC(Acm)RRWQARMKKLGA-OH; N-terminus assumed) | 2.8

----------
Test system: Staphylococcus aureus ATCC 25923
Format: cell-based
reported.conditions: ATCC 25923
Peptide text beside a SMILES is read from it. * marks the point of attachment. Acm = CC(=O)NC*
Recorded MIC S. aureus values for a group of compounds are listed next.
readout: MIC S. aureus

1) CSCC[C@H](NC(=O)[C@H](CCC(=O)O)NC(=O)[C@H](CC(N)=O)NC(=O)[C@H](CCC(N)=O)NC(=O)[C@H](Cc1c[nH]c2ccccc12)NC(=O)[C@H](CCCNC(=N)N)NC(=O)[C@H](CC(C)C)NC(=O)[C@H](CSCNC(C)=O)NC(=O)[C@H](CCCCN)NC(=O)[C@@H](N)CCC(=O)O)C(=O)N[C@@H](CCCNC(=N)N)C(=O)N[C@@H](CCCCN)C(=O)N[C@H](C(=O)NCC(=O)NCC(=O)O)C(C)C [LFM, EKCLRWQNEMRKVGG] (H-EKC(Acm)LRWQNEMRKVGG-OH; N-terminus assumed) | >1000 µg/mL
2) CSCC[C@H](NC(=O)[C@H](CCCNC(=N)N)NC(=O)[C@H](Cc1c[nH]c2ccccc12)NC(=O)[C@H](CCC(N)=O)NC(=O)[C@H](Cc1c[nH]c2ccccc12)NC(=O)[C@H](CCCNC(=N)N)NC(=O)[C@H](CCCNC(=N)N)NC(=O)[C@H](CSCNC(C)=O)NC(=O)[C@H](CCCCN)NC(=O)[C@@H](N)Cc1ccccc1)C(=O)N[C@@H](CCCCN)C(=O)N[C@@H](CCCCN)C(=O)N[C@@H](C)C(=O)NCC(=O)N[C@@H](C)C(=O)O [LFB A13] (H-FKC(Acm)RRWQWRMKKAGA-OH) | >200 µg/mL
3) CSCC[C@H](NC(=O)[C@H](C)NC(=O)[C@H](Cc1c[nH]c2ccccc12)NC(=O)[C@H](CCC(N)=O)NC(=O)[C@H](Cc1c[nH]c2ccccc12)NC(=O)[C@H](CCCNC(=N)N)NC(=O)[C@H](CC(C)C)NC(=O)[C@H](CSCNC(C)=O)NC(=O)[C@H](CCCCN)NC(=O)[C@H](C)N)C(=O)N[C@@H](CCCNC(=N)N)C(=O)N[C@@H](CCCCN)C(=O)N[C@H](C(=O)NCC(=O)NCC(=O)O)C(C)C [LFM A1, 9 W8] (H-AKC(Acm)LRWQWAMRKVGG-OH; N-terminus assumed) | >1000 µg/mL
4) CSCC[C@H](NC(=O)[C@H](CCC(=O)O)NC(=O)[C@H](Cc1c[nH]c2ccccc12)NC(=O)[C@H](CCC(N)=O)NC(=O)[C@H](Cc1c[nH]c2ccccc12)NC(=O)[C@H](CCCNC(=N)N)NC(=O)[C@H](CC(C)C)NC(=O)[C@H](CSCNC(C)=O)NC(=O)[C@H](CCCCN)NC(=O)[C@@H](N)CCC(=O)O)C(=O)N[C@@H](CCCNC(=N)N)C(=O)N[C@@H](CCCCN)C(=O)N[C@@H](Cc1ccc(O)cc1)C(=O)NCC(=O)NCC(=O)O [LFM W8 Y13] (H-EKC(Acm)LRWQWEMRKYGG-OH; N-terminus and C-terminus assumed) | >1000 µg/mL
5) CSCC[C@H](NC(=O)[C@H](CCCNC(=N)N)NC(=O)[C@H](Cc1c[nH]c2ccccc12)NC(=O)[C@H](CCC(N)=O)NC(=O)[C@H](Cc1c[nH]c2ccccc12)NC(=O)[C@H](CCCNC(=N)N)NC(=O)[C@H](CCCNC(=N)N)NC(=O)[C@H](CSCNC(C)=O)NC(=O)[C@H](C)NC(=O)[C@@H](N)Cc1ccccc1)C(=O)N[C@@H](CCCCN)C(=O)N[C@@H](CCCCN)C(=O)N[C@@H](CC(C)C)C(=O)NCC(=O)N[C@@H](C)C(=O)O [LFB A2] (H-FAC(Acm)RRWQWRMKKLGA-OH) | >200 µg/mL
6) CSCC[C@H](NC(=O)[C@H](CCCNC(=N)N)NC(=O)[C@H](Cc1c[nH]c2ccccc12)NC(=O)[C@H](CCC(N)=O)NC(=O)[C@H](Cc1c[nH]c2ccccc12)NC(=O)[C@H](CCCNC(=N)N)NC(=O)[C@H](CC(C)C)NC(=O)[C@H](CSCNC(C)=O)NC(=O)[C@H](CCCCN)NC(=O)[C@@H](N)CCC(=O)O)C(=O)N[C@@H](CCCNC(=N)N)C(=O)N[C@@H](CCCCN)C(=O)N[C@@H](Cc1ccc(O)cc1)C(=O)NCC(=O)NCC(=O)O [LFM R9 W8 Y13] (H-EKC(Acm)LRWQWRMRKYGG-OH; N-terminus and C-terminus assumed) | 1000 µg/mL
7) CSCC[C@H](NC(=O)[C@H](CCCNC(=N)N)NC(=O)[C@H](Cc1ccc2ccccc2c1)NC(=O)[C@H](CCC(N)=O)NC(=O)[C@H](Cc1c(S(=O)(=O)c2c(C)c(C)c3c(c2C)CCC(C)(C)O3)[nH]c2ccccc12)NC(=O)[C@H](CCCNC(=N)N)NC(=O)[C@H](CCCNC(=N)N)NC(=O)[C@H](CSCNC(C)=O)NC(=O)[C@H](CCCCN)NC(=O)[C@@H](N)Cc1ccccc1)C(=O)N[C@@H](CCCCN)C(=O)N[C@@H](CCCCN)C(=O)N[C@@H](CC(C)C)C(=O)NCC(=O)N[C@@H](C)C(=O)O [LFB Nal8 PMC] | 10 µg/mL
8) CC(=O)NCSC[C@H](NC(=O)[C@H](CCCCN)NC(=O)[C@@H](N)Cc1ccccc1)C(=O)N[C@@H](CCCNC(=N)N)C(=O)N[C@@H](CCCNC(=N)N)C(=O)N[C@@H](Cc1c[nH]c2ccccc12)C(=O)N[C@@H](CCC(N)=O)C(=O)N[C@@H](Cc1c[nH]c2ccccc12)C(=O)N[C@@H](CCCNC(=N)N)C(=O)N[C@@H](C)C(=O)N[C@@H](CCCCN)C(=O)N[C@@H](CCCCN)C(=O)N[C@@H](CC(C)C)C(=O)NCC(=O)N[C@@H](C)C(=O)O [LFB A10] (H-FKC(Acm)RRWQWRAKKLGA-OH) | >200 µg/mL
